experimental protocol: NOD1 signaling inhibitors, primary screen, cell-based, luminescence, uHTS (AID 1578);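 also: HEK-293T reporter cells stimulated with the NOD1 agonist gamma-tri-DAP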
condition context: NOD1-driven NF-kB luciferase reporter cells, at 4 µM, active compounds read high
Out of some 290,000 compounds screened, about 3,000 (1%) were called active. The sample holds actives, similar compounds and a random draw of the others, so the mix is not that of the screen.
Collected inhibition values appear next to each entry.
parameter: inhibition (%)

> print(dat)
                                    molecule  readout.number
 1                 COc1cc(Br)c(CC(=O)O)cc1OC               4
 2  Cc1ccc(S(=O)(=O)C(C#N)c2nc3ccccc3nc2OCCO)cc1 (stereo not given)           -27.7
 3  O=C(COC(=O)CCC(=O)c1ccc(F)cc1)Nc1ccc(N2CCOCC2)cc1            -6.3
 4    Cc1cnc(NC(=O)c2nn(C)cc2[N+](=O)[O-])s1            24.8
 5     Nc1ccccc1Nc1cc(-c2ccccc2)nn1-c1ccccc1           -20.6
 6  CCn1cc([N+](=O)[O-])c(C(=O)Nc2nc(-c3ccc(C)c(C)c3)c(C)s2)n1           -63.4
 7  COCCNC(=O)/C(C#N)=C/c1ccc(O)c([N+](=O)[O-])c1           -50.1
 8  COc1ccc(C(=O)C2CCCN(C(=O)COc3ccc(C(C)=O)cc3)C2)cc1F (stereo not given)           -21.9
 9  Cc1ccc(OCC(=O)Nc2ccc(NC(=O)c3ccccc3)cc2)cc1C           -12.6
10  CC(=O)c1c(C)[nH]c(C(=O)Nc2nc(-c3ccc(Cl)cc3)cs2)c1C            66.1
11  CCOC(=O)C1=C(N)Oc2cc(O)ccc2C1c1ccc([N+](=O)[O-])cc1 (stereo not given)            67.7
12  N#CC(c1nc2ccccc2nc1N1CCCC1)S(=O)(=O)c1ccccc1 (stereo not given)            10.2
13  O=C(Nc1ccc(N2CCN(C(=O)c3ccccc3)CC2)cc1)c1ccc2c(c1)OCCO2            31.2
14  COc1ccc(C2c3cc(OC)c(OC)cc3CCN2C(=O)c2ccccc2)cc1OC (stereo not given)           -31.9
15  Cc1ccc(C(=O)Nc2cccc(C(F)(F)F)c2)cc1Nc1ccccn1            -7.5
16  Cc1ccc(C2=Nn3c(COc4ccc(Cl)cc4)nnc3SC2CC(=O)O)cc1 (stereo not given)             3.6
17  CCCCOc1cccc(C(=O)NC(=S)Nc2cccc(NC(=O)c3ccccc3Cl)c2)c1           -15.9
18  COc1ccc(S(=O)(=O)C(C#N)c2nc3ccccc3nc2N2CCCC(C)C2)cc1 (stereo not given)           -10.7
19  N#CC(c1nc2ccccc2nc1N1CCCCC1)S(=O)(=O)c1ccc(Cl)cc1 (stereo not given)            88.1
20  CC1CCCN(c2nc3ccccc3nc2C(C#N)S(=O)(=O)c2ccccc2)C1 (stereo not given)             102
21      O=C(Nc1cccnc1)c1ccc(COc2ccccc2Br)cc1            -8.4
22    CC(=O)c1c(C)[nH]c(C(=O)Nc2nc(C)cs2)c1C            12.4
23  N#C/C(=C\c1ccc(O)c([N+](=O)[O-])c1)C(=O)NCc1ccccc1           -13.6
24  O=C(Nc1nc2cc3c(cc2s1)OCCO3)c1cccc(S(=O)(=O)N2CCOCC2)c1             5.8
25        Nc1ccc(S(=O)(=O)Nc2nc3ccccc3o2)cc1           -21.3
26     Cn1cc([N+](=O)[O-])c(C(=O)Nc2nccs2)n1           -14.6
27     N#C/C(=C\C=C\c1ccccc1)C(=O)NCc1cccnc1            68.7
28  O=C(Nc1ccc(Cn2cccn2)cc1)c1ccc(COc2ccccc2Br)cc1            60.2
29  COc1cc(NC(=O)/C=C/c2ccccc2[N+](=O)[O-])cc(OC)c1           -36.1
30  COc1ccc(-c2cc(=O)oc3cc(OCC(C)=O)ccc23)cc1           -12.9
31  Cc1ccc(C(=O)Nc2cccc(C(F)(F)F)c2)cc1Nc1cnccn1            -3.7
32       Cc1cc(C)n(C(=O)CNC(=O)c2ccccc2Br)n1           -28.7
33                CCCn1c(=S)[nH]c2ccccc2c1=O           -14.5
34  O=C(C1CCC(=O)N(C2CCCC2)C1)N1CCN(c2ccccc2Cl)CC1 (stereo not given)            -2.7
35              O=C(/C=C/c1ccccc1)NCc1cccnc1             -46
